Value source: patent US9980943B2

- System: β-galactosidase in CMV-LacZ C2C12 myotubes
- assay_overview: CMV-LacZ secondary screen in C2C12 myotubes (β-Gal stabilizing assay)
- Assay type: cell-based, mouse
- condition_label: 1 uM; C2C12 CMV-LacZ myotubes; fold relative to DMSO
endpoint_name: CMV-LACZ in Myotubes, signal relative to DMSO

molecule	assayed_target	numeric_result
CCNC(=O)C(=O)Nc1cc2c3c(c1)CCN3C(=O)CC2 [MLS001167798-01]	β-galactosidase in CMV-LacZ C2C12 myotubes	0.9295
COc1ccc(Cl)cc1NC(=O)c1cc(-c2cc(C)ccc2O)n[nH]1 [MLS000779126-01]	β-galactosidase in CMV-LacZ C2C12 myotubes	1.2162
CCOC(=O)C1=C(CC)Nc2ccccc2N=C1NC(=O)c1ccc(OC)c(S(=O)(=O)N2CCCCC2C)c1 (stereo not drawn) [MLS000776409-01]	β-galactosidase in CMV-LacZ C2C12 myotubes	0.9752
CCOC(=O)c1sc(=N)n(-c2ccc(OC)cc2)c1C [MLS000090135-01]	β-galactosidase in CMV-LacZ C2C12 myotubes	1.1036
O=C(NCCc1ccccc1)C1CCC(=O)N1C1CCCC1 (stereo not drawn) [MLS001200665-01]	β-galactosidase in CMV-LacZ C2C12 myotubes	0.9695
O=C(CSc1nnc(COc2ccc(Br)cc2)o1)NC1CCCCC1 [MLS001215357-01]	β-galactosidase in CMV-LacZ C2C12 myotubes	1.1400
Cc1[nH]c(=O)[nH]c(=O)c1S(=O)(=O)Nc1ccc(F)cc1Cl [MLS001200149-01]	β-galactosidase in CMV-LacZ C2C12 myotubes	0.9933
N#CC1=C2SCN(c3ccccc3)CN2C(=O)CC1c1cccs1 (stereo not drawn) [MLS000080654-01]	β-galactosidase in CMV-LacZ C2C12 myotubes	1.0086
COc1ccccc1C(=O)Nc1ccnn1C1CCN(C(=O)c2ccoc2)CC1 [MLS001083082-01]	β-galactosidase in CMV-LacZ C2C12 myotubes	1.0326
CCc1c(C)sc(NC(=O)c2ccco2)c1C#N [MLS001240181-01]	β-galactosidase in CMV-LacZ C2C12 myotubes	1.0511
OC(c1nc2ccc(F)cc2[nH]1)C(O)c1nc2ccc(F)cc2[nH]1 (stereo not drawn) [MLS001182368-01]	β-galactosidase in CMV-LacZ C2C12 myotubes	1.0619
O=C(O)C(Cc1ccc(O)cc1)N1C(=O)c2ccccc2C1=O (stereo not drawn) [MLS001165394-01]	β-galactosidase in CMV-LacZ C2C12 myotubes	1.1558
COCCSc1ccccc1C(=O)Nc1cc(C)cc(C)c1 [MLS000675441-01]	β-galactosidase in CMV-LacZ C2C12 myotubes	1.1032
CCCS(=O)(=O)c1nc(S(=O)(=O)c2ccc(C)cc2)c(N2CCCC2)s1 [MLS000113985-01]	β-galactosidase in CMV-LacZ C2C12 myotubes	1.0638
O=C(Nc1ccccc1OC(=O)c1ccc(Cl)cc1)c1ccc(Cl)cc1 [MLS000573208-01]	β-galactosidase in CMV-LacZ C2C12 myotubes	1.3021
CC(C)(C)NC(=O)NC(=O)CN1CCN(Cc2ccccc2)CC1 [MLS001006302-01]	β-galactosidase in CMV-LacZ C2C12 myotubes	0.9143
CCN(CC)C(=O)c1sc2nc(-c3ccc(OC)cc3)cn2c1C [MLS000089464-01]	β-galactosidase in CMV-LacZ C2C12 myotubes	1.3716
CC1Cc2ccccc2N1C(=O)CSc1nnc(N)s1 (stereo not drawn) [MLS001160611-01]	β-galactosidase in CMV-LacZ C2C12 myotubes	1.2419
N#Cc1ccc(Sc2nc3ccccc3[nH]2)cc1C#N [MLS000110418-01]	β-galactosidase in CMV-LacZ C2C12 myotubes	0.9000
N/C(=N\OC(=O)c1cccc(C(F)(F)F)c1)c1cnccn1 [MLS001098105-01]	β-galactosidase in CMV-LacZ C2C12 myotubes	1.2543
N#Cc1nc(COc2ccccc2)oc1N1CCCC1 [MLS000036988-01]	β-galactosidase in CMV-LacZ C2C12 myotubes	0.8905
CC1CC(C)(C)NC(=S)N1CC(=O)N(C)Cc1ccccc1 (stereo not drawn) [MLS000586245-01]	β-galactosidase in CMV-LacZ C2C12 myotubes	1.0800
CC(C)c1ccc(NC(=O)CN2C(=O)c3ccccc3S2(=O)=O)cc1 [MLS001229477-01]	β-galactosidase in CMV-LacZ C2C12 myotubes	1.1095
COc1cccc(C(=O)COc2ccc3ccc(=O)oc3c2)c1 [MLS000677675-01]	β-galactosidase in CMV-LacZ C2C12 myotubes	0.9962
CN(/C(=N/S(=O)(=O)c1cccs1)c1ccccc1)c1ccccc1 [MLS000582947-01]	β-galactosidase in CMV-LacZ C2C12 myotubes	0.9610
O=C(Nc1cc(-c2nc3ccccc3s2)ccc1Cl)c1ccc2c(c1)OCO2 [MLS000560266-01]	β-galactosidase in CMV-LacZ C2C12 myotubes	1.0000
c1ccc(-c2cn3c4c(sc3n2)CCCC4)cc1 [MLS002636056-01]	β-galactosidase in CMV-LacZ C2C12 myotubes	1.2636
CCCCNc1nnc(Cc2ccc(Cl)cc2)c(=O)[nH]1 [MLS001215795-01]	β-galactosidase in CMV-LacZ C2C12 myotubes	1.0207
CCCC(=O)OCC(=O)c1[nH]c(C)c(C(C)=O)c1C [MLS001007892-01]	β-galactosidase in CMV-LacZ C2C12 myotubes	0.9291
CC1(C)Cc2ccccc2-c2nc3n(c(=O)c21)CCS3 [MLS000711491-01]	β-galactosidase in CMV-LacZ C2C12 myotubes	0.9095
Cl.O=C1C2CCCN2C(=O)N1CCCN1CCN(c2cccc(Br)c2)CC1 (stereo not drawn) [MLS001180929-01]	β-galactosidase in CMV-LacZ C2C12 myotubes	0.7876
Cc1ccc(NS(=O)(=O)c2cccc(C(=O)O)c2)cc1S(=O)(=O)N1CCOCC1 [MLS000393966-01]	β-galactosidase in CMV-LacZ C2C12 myotubes	1.3516
Fc1ccc(-c2ccnc3nc(N4CCN(c5ccccc5)CC4)nn23)cc1 [MLS000546316-01]	β-galactosidase in CMV-LacZ C2C12 myotubes	1.0019
COc1ccc(NC(=O)C2(N(C(=O)Cn3nnnc3N)c3ccc(OC)cc3)CCCCC2)cc1 [MLS001030268-01]	β-galactosidase in CMV-LacZ C2C12 myotubes	1.1711
CC(C)c1ccc(OC(=O)c2cccc(S(=O)(=O)N3CCN(C)CC3)c2)cc1 [MLS001130011-01]	β-galactosidase in CMV-LacZ C2C12 myotubes	1.0211
COc1ccccc1NS(=O)(=O)c1cc(NC(=O)c2ccc(Cl)nc2)ccc1N1CCCC1 [MLS002248819-01]	β-galactosidase in CMV-LacZ C2C12 myotubes	0.9505
